Test: LogP by HPLC on reversed phase columns (EEC directive 79/831 Annex V.A8)
Format: physicochemical
Conditions: method [a]
value-kind: LogP

Below, each entry is followed by its recorded LogP result.
[[record]]
compound = "CCOC(=O)CN(C)C(=O)c1sc(Cl)c(Cl)c1C"
value_kind = "LogP"
recorded_value = "3.15^[a]"

[[record]]
compound = "CCOC(=O)C1(NC(=O)c2sc(Cl)c(Cl)c2C)CN(C(=O)OC(C)(C)C)C1"
value_kind = "LogP"
recorded_value = "4.15^[a]"

[[record]]
compound = "CNC(=O)CNC(=O)c1sc(Cl)c(Cl)c1C"
value_kind = "LogP"
recorded_value = "1.92^[a]"

[[record]]
compound = "CCOC(=O)C1(NC(=O)c2sc(Br)c(Br)c2C)CCOCC1"
value_kind = "LogP"
recorded_value = "3.17^[a]"

[[record]]
compound = "CCOC(=O)C(CSC(C)=O)NC(=O)c1sc(Cl)c(Cl)c1C (centres unmarked)"
value_kind = "LogP"
recorded_value = "3.51^[a]"


Quote LogP reported for COC(=O)CNC(=S)c1sc(Cl)c(Cl)c1C please. 3.60^[a]

---

Experiment: LogP by HPLC on reversed phase columns (EEC directive 79/831 Annex V.A8)
Assay type: physicochemical
Conditions: method [a]
value-kind: LogP

Previously resolved entries follow.
[[record]]
compound = "CCOC(=O)C(C)NC(=S)c1sc(Br)c(Br)c1C (centres unmarked)"
recorded_value = "4.38^[a]"

[[record]]
compound = "Cc1c(C(=O)NC(C(=O)OC(C)(C)C)C2CC2)sc(Cl)c1Cl (centres unmarked)"
recorded_value = "4.70^[a]"

[[record]]
compound = "COC(=O)C(NC(=O)c1sc(Cl)c(Cl)c1C)C(=O)OC"
recorded_value = "3.01^[a]"


Read the entry Cc1c(C(=O)NC(Cc2c[nH]c3ccccc23)C(=O)O)sc(Br)c1Br (centres unmarked) and write its reported LogP. 3.07^[a]

Quote LogP reported for Cc1c(C(=O)NC2(C#N)CCCSC2)sc(Br)c1Br (centres unmarked) please. 3.50^[a]

Complete the entry with LogP for Cc1c(C(=O)NC(CO)C(=O)O)sc(Br)c1Br (centres unmarked) 1.92^[a]

Kindly indicate its recorded LogP. Item: CNC(=O)C1(NC(=O)c2sc(Cl)c(Cl)c2C)CC1 2.12^[a]

Input CCSC(=O)C(CC(C)C)NC(=O)c1sc(Cl)c(Cl)c1C (centres unmarked) , output reported LogP. 5.00^[a]

Read the entry COC(=O)[C@H](CC(N)=O)NC(=O)c1sc(Br)c(Br)c1C and write its reported LogP. 2.12^[a]

Using the record for CCOC(=O)C1(CNC(=O)c2sc(Br)c(Br)c2C)CC1 , state its measured LogP. 3.79^[a]

Note LogP for the compound shown: CNC(=S)SC[C@H](NC(=O)c1sc(Cl)c(Cl)c1C)C(=O)OC 3.33^[a]

---

Test system: Uromyces appendiculatus
Assay: In vivo preventive test on Uromyces appendiculatus (bean rust)
Conditions: 240 h, 500 ppm of active ingredient, sprayed 72 hours before inoculation, evaluated 10 days after inoculation, read-out: efficacy
Catalogue of compounds with associated pest or weed control at 500 ppm

Worked examples, 8 compounds total:
[[record]]
compound = "COC(=O)C(NC(=O)c1sc(Cl)c(Cl)c1C)C1CC1 (stereo not shown)"
value_kind = "pest or weed control at 500 ppm"
recorded_value = "90 to 100%"

[[record]]
compound = "CCSC(=O)C1(NC(=O)c2sc(Cl)c(Cl)c2C)CC1"
value_kind = "pest or weed control at 500 ppm"
recorded_value = "80 to 89%"

[[record]]
compound = "CCOC(=O)C1(NC(=O)c2cc(Br)c(Br)s2)CC1 [CMP2, reference compound]"
value_kind = "pest or weed control at 500 ppm"
recorded_value = "< 30%"

[[record]]
compound = "CCCSC(=O)C1(NC(=O)c2sc(Br)c(Br)c2C)CC1"
value_kind = "pest or weed control at 500 ppm"
recorded_value = "90 to 100%"

[[record]]
compound = "Cc1c(C(=O)NC(C(=O)O)C2CC2)sc(Cl)c1Cl (stereo not shown)"
value_kind = "pest or weed control at 500 ppm"
recorded_value = "90 to 100%"

[[record]]
compound = "CCOC(=O)C(NC(=O)c1sc(Cl)c(Cl)c1C)C1CC1 (stereo not shown)"
value_kind = "pest or weed control at 500 ppm"
recorded_value = "90 to 100%"

[[record]]
compound = "CCOC(=O)C1(NC(=O)c2sc(Cl)c(Cl)c2C)CCC1"
value_kind = "pest or weed control at 500 ppm"
recorded_value = "90 to 100%"

[[record]]
compound = "COC(=O)C(CC(F)F)NC(=O)c1sc(Br)c(Br)c1C (stereo not shown)"
value_kind = "pest or weed control at 500 ppm"
recorded_value = "90 to 100%"


State its pest or weed control at 500 ppm for this compound: COC(=O)CC[C@H](NC(=O)c1sc(Cl)c(Cl)c1C)C(=O)OC 90 to 100%

Entry CCSC(=O)C1(NC(=O)c2sc(Br)c(Br)c2C)CC1 needs its pest or weed control at 500 ppm filled in; supply it. 90 to 100%

Return pest or weed control at 500 ppm for the following compound: CCOC(=O)C1(NC(=O)c2sc(Br)c(Br)c2C)COC1 90 to 100%

Give the reported pest or weed control at 500 ppm for this compound. Cc1c(C(=O)NC(CC(N)=O)C(=O)O)sc(Br)c1Br (stereo not shown) 90 to 100%

Look up and report measured pest or weed control at 500 ppm for this entry: Cc1c(C(=S)NC2(C(=O)O)CC2)sc(Cl)c1Cl 90 to 100%

Return pest or weed control at 500 ppm (reported value) for this compound: COC(=O)CC[C@H](NC(=O)c1sc(Br)c(Br)c1C)C(=O)OC 90 to 100%

Indicate the recorded pest or weed control at 500 ppm value for this compound: CCOC(=O)C(CO)NC(=O)c1sc(Cl)c(Cl)c1C (stereo not shown) 80 to 89%

---

Experiment: LogP by HPLC on reversed phase columns (EEC directive 79/831 Annex V.A8)
Type: physicochemical
Details: method [a]
Description: [table] If more than one Log P value is available within the same method, all the values are given and separated by “+”. Calibration was done with straight-chain alkan2-ones (with 3 to 16 carbon atoms) with known Log P values (measurement of Log P values using retention times with linear interpolation between successive alkanones). Lambda-max-values were determined using UV-spectra from 200 nm to 400 nm and the peak values of the chromatographic signals.
value-kind: LogP

[[record]]
molecule = "CCSC(=O)C(NC(=O)c1sc(Br)c(Br)c1C)C(C)C (centres unmarked) [I.008]"
recorded_value = "4.74^[a]"

[[record]]
molecule = "COC(=O)CC1(NC(=O)c2sc(Cl)c(Cl)c2C)CC1 [I.082]"
recorded_value = "2.98^[a]"

[[record]]
molecule = "Cc1c(C(=O)NC2(C(N)=O)CC2)sc(Cl)c1Cl [I.063]"
recorded_value = "1.96^[a]"

[[record]]
molecule = "COC(=O)C(NC(=O)c1sc(Cl)c(Cl)c1C)(C1CC1)C1CC1 [I.086]"
recorded_value = "3.94^[a]"


Write down LogP measured for item CCOC(=O)CN(OC)C(=O)c1sc(Br)c(Br)c1C [I.097] 3.93^[a]

---

System: Uromyces appendiculatus
Assay: In vivo preventive test on Uromyces appendiculatus (bean rust)
Details: 240 h, 500 ppm of active ingredient, sprayed 72 hours before inoculation, evaluated 10 days after inoculation, read-out: efficacy
value-kind: pest or weed control at 500 ppm

Take a look at these entries with their results.
[[record]]
compound = "Cc1c(C(=S)N[C@H](C(=O)O)C(C)C)sc(Br)c1Br"
recorded_value = "70 to 79%"

[[record]]
compound = "COC(=O)[C@H](CCCNC(=N)N)NC(=O)c1sc(Cl)c(Cl)c1C"
recorded_value = "80 to 89%"

[[record]]
compound = "COC(=O)C(NC(=O)c1sc(Br)c(Br)c1C)C1CC1 (stereo not shown)"
recorded_value = "90 to 100%"

[[record]]
compound = "CCOC(=O)C1(NC(=O)c2sc(Br)c(Br)c2C)CCC1"
recorded_value = "90 to 100%"

[[record]]
compound = "Cc1c(C(=O)NC(C(=O)O)C2CC2)sc(Br)c1Br (stereo not shown)"
recorded_value = "90 to 100%"

[[record]]
compound = "CCOC(=O)C(COC)NC(=O)c1sc(Br)c(Br)c1C (stereo not shown)"
recorded_value = "90 to 100%"

[[record]]
compound = "CCOC(=O)C(CC(N)=O)NC(=O)c1sc(Br)c(Br)c1C (stereo not shown)"
recorded_value = "80 to 89%"

[[record]]
compound = "CCCOC(=O)C1(NC(=O)c2sc(Br)c(Br)c2C)CCC1"
recorded_value = "90 to 100%"


Return reported pest or weed control at 500 ppm. Input compound: COC(=O)C1(NC(=O)c2cc(Br)c(Br)s2)CC1 [CMP5, reference compound] < 20%

Specify reported pest or weed control at 500 ppm for the compound shown: COC(=O)C1(NC(=O)c2sc(Br)c(Br)c2C)CCC(F)(F)CC1 90 to 100%

Give the value of pest or weed control at 500 ppm reported for the following: Cc1c(C(=O)NC2(C(=O)O)CCC2)sc(Br)c1Br 90 to 100%

Please report the measured pest or weed control at 500 ppm for COC(=O)C1(NC(=O)c2sc(Br)c(Br)c2C)CCC1 90 to 100%

Query pest or weed control at 500 ppm for C=CC1CC1(NC(=O)c1sc(Br)c(Br)c1C)C(=O)OC (stereo not shown) 90 to 100%
